Just for reference, ChEMBL document CHEMBL1143964 is where these values come from.

Documented concentration at 1 h across a set of molecules
Assay: Drug level in Sprague-Dawley rat brain at 3 mg/kg, iv after 1 hr
Format: ADME, organism-based
Design: dose 3 mg/kg, route intravenous
Conditions: read-out: Drug uptake
ENDPOINT_NAME: concentration at 1 h

> print(dat)
                        structure.as.smiles  observed
1  COc1cc(Nc2nn3c(N[C@H](CO)Cc4ccccc4)cc(C4CC4)nc3c2C(N)=O)cc(OC)c1  256 ng/g
2  COc1cc(Nc2nn3c(N[C@@H](CO)C(C)C)cc(C4CC4)nc3c2C(N)=O)cc(OC)c1  126 ng/g
3  COc1cc(Nc2nn3c(N[C@H](CO)Cc4c[nH]c5ccccc45)cc(C4CC4)nc3c2C(N)=O)cc(OC)c1   89 ng/g

* * *

Documented concentration at 1 h across a set of molecules
Test: Drug level in Sprague-Dawley rat plasma at 3 mg/kg, iv after 1 hr
Type: ADME, organism-based
Parameters: dose 3 mg/kg, route intravenous
ENDPOINT_NAME: concentration at 1 h (ng/mL)

> print(dat)
                        structure.as.smiles         endpoint.name  observed
1  COc1cc(Nc2nn3c(N[C@H](CO)Cc4ccccc4)cc(C4CC4)nc3c2C(N)=O)cc(OC)c1  concentration at 1 h       273
2  COc1cc(Nc2nn3c(N[C@@H](CO)C(C)C)cc(C4CC4)nc3c2C(N)=O)cc(OC)c1  concentration at 1 h       346
3  COc1cc(Nc2nn3c(N[C@H](CO)Cc4c[nH]c5ccccc45)cc(C4CC4)nc3c2C(N)=O)cc(OC)c1  concentration at 1 h        80
4  COc1cc(Nc2nn3c(N[C@H](CO)Cc4cccnc4)cc(C4CC4)nc3c2C(N)=O)cc(OC)c1  concentration at 1 h        81

* * *

Biological target: Proto-oncogene tyrosine-protein kinase Src (Homo sapiens, UniProt P12931)
Sequence (P12931 2-536 limits assumed): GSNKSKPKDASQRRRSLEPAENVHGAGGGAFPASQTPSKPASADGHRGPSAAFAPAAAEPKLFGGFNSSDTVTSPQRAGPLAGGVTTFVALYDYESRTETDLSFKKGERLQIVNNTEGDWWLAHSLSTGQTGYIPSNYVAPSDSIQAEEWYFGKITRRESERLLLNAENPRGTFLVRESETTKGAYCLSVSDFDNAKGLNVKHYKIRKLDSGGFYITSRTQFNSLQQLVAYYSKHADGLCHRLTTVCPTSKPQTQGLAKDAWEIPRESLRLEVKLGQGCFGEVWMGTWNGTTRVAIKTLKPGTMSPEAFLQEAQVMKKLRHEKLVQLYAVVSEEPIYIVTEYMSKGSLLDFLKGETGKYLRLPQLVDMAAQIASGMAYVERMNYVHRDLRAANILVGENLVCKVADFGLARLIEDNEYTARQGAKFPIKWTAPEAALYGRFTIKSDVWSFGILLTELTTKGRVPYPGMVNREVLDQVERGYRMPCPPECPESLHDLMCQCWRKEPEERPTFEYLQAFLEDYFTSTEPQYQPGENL
Assay: Inhibition of human cSrc in COS7 cells by ELISA
Format: cell-based, COS-7
pIC50: −log10 of the molar value.
ENDPOINT_NAME: pIC50

> print(dat)
                        structure.as.smiles  observed
1  COc1cc(Nc2nn3c(N[C@H](CO)Cc4cccnc4)cc(C4CC4)nc3c2C(N)=O)cc(OC)c1      7.00
2  COc1cc(Nc2nn3c(NCC(C)(C)N)cc(C)nc3c2C(N)=O)cc(OC)c1      6.05
3  COc1cc(Nc2nn3c(N[C@@H](CO)C(C)C)cc(C4CC4)nc3c2C(N)=O)cc(OC)c1      7.00
4  COc1cc(Nc2nn3c(N[C@H](CO)Cc4c[nH]c5ccccc45)cc(C4CC4)nc3c2C(N)=O)cc(OC)c1      6.30
5  COc1cc(Nc2nn3c(N[C@H](CO)Cc4ccccc4)cc(C4CC4)nc3c2C(N)=O)cc(OC)c1      7.00

* * *

Target: Proto-oncogene tyrosine-protein kinase Src (Homo sapiens)
Assay: Inhibition of human cSrc
ENDPOINT_NAME: IC50 (µM)

> print(dat)
                        structure.as.smiles                           measured.target  unit.of.measure  observed
1  COc1cc(Nc2nn3c(N[C@@H](CO)C(C)C)cc(C)nc3c2C(N)=O)cc(OC)c1  Proto-oncogene tyrosine-protein kinase Src (Homo sapiens)               µM     0.432
2  COc1cc(Nc2nn3c(NCC(C)(C)N)cc(C)nc3c2C(N)=O)cc(OC)c1  Proto-oncogene tyrosine-protein kinase Src (Homo sapiens)               µM     0.175
3  COc1cc(Nc2nn3c(NC[C@H](C)O)cc(C)nc3c2C(N)=O)cc(OC)c1  Proto-oncogene tyrosine-protein kinase Src (Homo sapiens)               µM       9.2
4  COc1cc(Nc2nn3c(N[C@@H](CO)C(C)C)cc(-c4ccccc4)nc3c2C(N)=O)cc(OC)c1  Proto-oncogene tyrosine-protein kinase Src (Homo sapiens)               µM     0.068
5  COc1cc(Nc2nn3c(N[C@H](CO)Cc4cccnc4)cc(C4CC4)nc3c2C(N)=O)cc(OC)c1  Proto-oncogene tyrosine-protein kinase Src (Homo sapiens)               µM     0.005
6  COc1cc(Nc2nn3c(N[C@H](CO)C(C)C)cc(C)nc3c2C(N)=O)cc(OC)c1  Proto-oncogene tyrosine-protein kinase Src (Homo sapiens)               µM      1.21
7  COc1cc(Nc2nn3c(N[C@H](CO)Cc4c[nH]c5ccccc45)cc(C4CC4)nc3c2C(N)=O)cc(OC)c1  Proto-oncogene tyrosine-protein kinase Src (Homo sapiens)               µM     0.005
8  COc1cc(Nc2nn3c(N[C@@H](CO)C(C)C)cc(C(C)C)nc3c2C(N)=O)cc(OC)c1  Proto-oncogene tyrosine-protein kinase Src (Homo sapiens)               µM     0.041

* * *

Test: Volume of distribution at steady state in Sprague-Dawley rat middle cerebral artery occlusion model at 3 mg/kg, iv
Type: ADME, organism-based
Set-up: dose 3 mg/kg, route intravenous
Conditions: in vivo, read-out: Vdss
ENDPOINT_NAME: Vd (L/kg)

> print(dat)
                        structure.as.smiles  unit.of.measure  observed
1  COc1cc(Nc2nn3c(N[C@H](CO)Cc4ccccc4)cc(C4CC4)nc3c2C(N)=O)cc(OC)c1             L/kg      0.53

* * *

Target: IKr channel (Oryctolagus cuniculus)
Sequence (Q28705 whole entry): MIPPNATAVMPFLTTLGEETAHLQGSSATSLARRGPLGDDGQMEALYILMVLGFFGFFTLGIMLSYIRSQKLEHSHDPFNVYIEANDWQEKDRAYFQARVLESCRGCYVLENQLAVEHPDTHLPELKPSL
Assay: Inhibition of Ikr channel in rabbit ventricular myocytes at 30 uM
Documented inhibition at 30 µM across a set of compounds
ENDPOINT_NAME: inhibition at 30 µM (%)

> print(dat)
                        structure.as.smiles  observed
1  COc1cc(Nc2nn3c(N4CCC[C@@H]4CO)cc(C4CC4)nc3c2C(N)=O)cc(OC)c1      14.2
2  COc1cc(Nc2nn3c(N[C@H](CO)Cc4c[nH]c5ccccc45)cc(C4CC4)nc3c2C(N)=O)cc(OC)c1       5.4
3  COc1cc(Nc2nn3c(N[C@@H](CO)C(C)C)cc(C(C)C)nc3c2C(N)=O)cc(OC)c1      14.6
4  COc1cc(Nc2nn3c(N[C@H](CO)Cc4ccccc4)cc(C4CC4)nc3c2C(N)=O)cc(OC)c1      23.4
5  COc1cc(Nc2nn3c(N[C@@H](CO)C(C)C)cc(-c4ccccc4)nc3c2C(N)=O)cc(OC)c1      12.4

* * *

Target: Protein kinase C beta type (Homo sapiens, UniProt P05771)
Sequence (P05771 whole entry): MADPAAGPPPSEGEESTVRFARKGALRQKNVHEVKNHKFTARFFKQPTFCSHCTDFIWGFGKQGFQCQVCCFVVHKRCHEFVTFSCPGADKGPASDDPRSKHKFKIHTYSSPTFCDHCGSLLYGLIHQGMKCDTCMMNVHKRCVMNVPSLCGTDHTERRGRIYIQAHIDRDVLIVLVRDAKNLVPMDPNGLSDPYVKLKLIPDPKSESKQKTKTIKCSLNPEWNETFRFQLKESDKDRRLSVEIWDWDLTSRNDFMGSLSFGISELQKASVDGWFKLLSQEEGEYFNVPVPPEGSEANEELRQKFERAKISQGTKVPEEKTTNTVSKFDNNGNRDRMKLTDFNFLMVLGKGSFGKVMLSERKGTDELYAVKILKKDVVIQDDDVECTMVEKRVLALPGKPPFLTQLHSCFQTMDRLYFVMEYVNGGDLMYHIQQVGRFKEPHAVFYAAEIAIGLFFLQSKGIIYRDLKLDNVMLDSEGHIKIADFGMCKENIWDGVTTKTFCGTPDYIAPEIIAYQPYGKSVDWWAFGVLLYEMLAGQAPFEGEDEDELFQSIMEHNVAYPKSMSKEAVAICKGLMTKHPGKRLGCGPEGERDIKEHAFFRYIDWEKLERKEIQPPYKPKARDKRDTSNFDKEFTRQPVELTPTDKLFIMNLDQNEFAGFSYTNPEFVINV
pIC50: −log10 of the molar value.
ENDPOINT_NAME: pIC50

> print(dat)
                        structure.as.smiles                           measured.target  observed
1  COc1cc(Nc2nn3c(N[C@H](CO)Cc4ccccc4)cc(C4CC4)nc3c2C(N)=O)cc(OC)c1  Protein kinase C beta type (Homo sapiens, UniProt P05771)    < 5.00
